Tested on: BDF1 mice, B16 melanoma ip, median survival T/C
Assay: NCI In Vivo Anticancer Drug Screen. Data for tumor model B16 Melanoma (intraperitoneal) in B6D2F1 (BDF1) mice
Details: endpoint: median survival time; dose: 25.0 mg/kg/injection; schedule: Q01DX009 (ip); vehicle: Klucel (hydroxypropylcellulose) (HPC)
Inconclusive results and toxic doses are left out. How the source made its calls: active means survival T/C of 150% or more; inactive means T/C below 125% in these data.
Please reply with one of these outcomes: active, inactive

// outcome(item) with item = c1cc2ccc3ccc(C4CO4)c4ccc(c1)c2c34 (centres undefined)
inactive

// outcome(item) with item = `CC1=CC(=Nc2ccc(N(CCCl)CCCl)cc2)C=C(C)C1=O`
active

// outcome(item) with item = `c1ccc(COCCNCCOCc2ccccc2)cc1`
inactive

// outcome(item) with item = `CN(Cc1ccccc1)Cc1ccccc1`
inactive

// outcome(item) with item = `CN(C)[C@@H]1C(=O)C(C(=O)NCN(CCCl)CCCl)=C(O)[C@@]2(O)C(=O)C3=C(O)c4c(O)cccc4[C@@](C)(O)[C@H]3C[C@@H]12`
inactive

// outcome(item) with item = `COc1cc2c(c(OC)c1OC)-c1ccc(SCc3ccccc3)c(=O)cc1[C@@H](NC(C)=O)CC2`
inactive

// outcome(item) with item = CN(C)C(C#N)C(=O)c1ccccc1 (centres undefined)
inactive

// outcome(item) with item = `CCO/C=C1\SC(=S)N(c2cccc(C)c2)C1=O`
inactive

// outcome(item) with item = OC1CCCC2CCC[N-]C12.OC1CCCC2CCC[N-]C12.[Mn+2] (centres undefined)
inactive

// outcome(item) with item = COc1cc(C)c(C2NC(=O)c3ccccc3N2)cc1C (centres undefined)
inactive

// outcome(item) with item = `CNC(=O)Nc1ccc(Cl)cc1C`
inactive

// outcome(item) with item = `Cc1ccc(NC(=O)c2ccc([N+](=O)[O-])cc2)cc1Cl`
inactive

// outcome(item) with item = `COc1ccccc1N1CCN(CCCC(=O)c2ccc(F)cc2)CC1`
inactive

// outcome(item) with item = COC1C(CO)OC(n2cnc3c(=S)nc(N)[nH]c32)C1O (centres undefined)
inactive

// outcome(item) with item = `O=c1ccc2ccccc2o1`
inactive

// outcome(item) with item = N=C(N)c1nn(C2OC(CO)C(O)C2O)c2ncnc(N)c12 (centres undefined)
inactive

// outcome(item) with item = `CN(C1CCCCC1)C1CCCCC1`
inactive

// outcome(item) with item = ClC1C(Cl)C(Cl)C(Cl)C(Cl)C1Cl (centres undefined)
inactive

// outcome(item) with item = `CC(=O)N(C)N(Cc1ccc(C#N)cc1)C(C)=O`
inactive

// outcome(item) with item = CCC(C)C(C#N)(CCN(CC)CC)c1ccccc1 (centres undefined)
inactive

// outcome(item) with item = O=C(O)c1ccc(OC(F)(F)C(F)Cl)cc1 (centres undefined)
inactive

// outcome(item) with item = `Cc1nonc1-c1ccc2c(c1)OCO2`
inactive

// outcome(item) with item = COc1cc2c(cc1OC)C(C#N)C2 (centres undefined)
inactive

// outcome(item) with item = `CC(=O)CC(=O)Nc1ccc2ccccc2c1`
inactive

// outcome(item) with item = `Clc1sc2ccccc2c1Cl`
inactive

// outcome(item) with item = `O=C(NNc1ccccc1)c1ccccc1`
inactive

// outcome(item) with item = `CC1(C)N=C(N)N=C(N)N1c1ccc(Cl)cc1Cl`
inactive

// outcome(item) with item = CCCCCCCCC(=O)OCCNC(=O)C(C)OC(=O)CCCCCCCC (centres undefined)
inactive

// outcome(item) with item = `O=C(Nc1ccc(Cl)c(Cl)c1)Nc1c(Oc2ccc(Cl)c(Cl)c2)ccc(Cl)c1S(=O)(=O)O`
inactive

// outcome(item) with item = O=C(O)c1ccccc1C(=O)OC1CC2C=CC1C21CC1 (centres undefined)
inactive

// outcome(item) with item = `Cc1cccc(NC(=O)Nc2ccccc2Cl)c1C`
inactive

// outcome(item) with item = `NC(=O)C=C1c2ccccc2-c2ccccc21`
inactive

// outcome(item) with item = `CC(=O)Nc1ccc(/C=N/NC(N)=S)cc1`
inactive

// outcome(item) with item = COC1C(O)C(C)OC(O[C@@H]2C[C@H]3CC[C@@H]4[C@H](CC[C@]5(C)[C@@H](C6=CC(=O)OC6)CC[C@]45O)[C@@]3(C)[C@H](O)C2)C1O (some centres undefined)
inactive

// outcome(item) with item = `Cc1cccc(C)c1NS(=O)(=O)c1ccc(Cl)cc1`
inactive

// outcome(item) with item = `O=S1(=O)C=CCCC=C1`
inactive

// outcome(item) with item = N#CCCNC(Cc1ccc(O)cc1)C(=O)O (centres undefined)
inactive

// outcome(item) with item = `CN(C)c1ccc2c(N(C)C)cc(N(C)C)nc2c1`
inactive

// outcome(item) with item = `Cc1[nH]ccc2c(C)c3nc4ccccc4c3cc12`
active

// outcome(item) with item = COc1cc2c(cc1Oc1c(Oc3c(O)c(OC)cc4c3C(CC(C)C)N(C)CC4)c(OC)cc3c1C(CC(C)C)N(C)CC3)C(CC(C)C)N(C)CC2 (centres undefined)
inactive

// outcome(item) with item = `Cc1cc2nc3ccc(N)cc3oc-2cc1=[N+](C)C`
inactive

// outcome(item) with item = CC(=O)OCC1OC(n2cc(CBr)nn2)C(OC(C)=O)C(OC(C)=O)C1OC(C)=O (centres undefined)
inactive

// outcome(item) with item = `CNc1nc(NC)nc(NC)n1`
inactive

// outcome(item) with item = `S=c1[nH]nc(NC2CCCCC2)s1`
inactive

// outcome(item) with item = `CCCN(C)N=Nc1ccccc1C(=O)O`
inactive

// outcome(item) with item = CN(C)C=NC1CCC(C(C)(C)C)CC1 (centres undefined)
inactive

// outcome(item) with item = `Cc1cc(C)c(NC(=O)Nc2cccc3ccccc23)c(C)c1`
inactive

// outcome(item) with item = O=C1C2(Cl)C3(Cl)C4(Cl)C(Cl)(Cl)C5(Cl)[C@]3(Cl)C1(Cl)[C@]5(Cl)C24Cl (some centres undefined)
inactive

// outcome(item) with item = `CC(C(=O)O)C(=O)O.[NH2-].[NH2-].[Pt+2]`
active

====

System: BDF1 mice, B16 melanoma ip, median survival T/C
Experiment: NCI In Vivo Anticancer Drug Screen. Data for tumor model B16 Melanoma (intraperitoneal) in B6D2F1 (BDF1) mice
Conditions: endpoint: median survival time; dose: 1.56 mg/kg/injection; schedule: Q01DX009 (ip); vehicle: saline
Toxic doses and inconclusive results are not listed. The calls were made as follows: active = survival T/C of 150% or more; inactive = T/C below 125% in these data.
Please reply with one of these outcomes: active, inactive

// outcome(item) with item = `COc1cc(C(=O)OCCCN2CCOCC2)cc(OC)c1OC`
inactive

// outcome(item) with item = O=CC(O)C(O)C(O)C(O)C(=O)O.[NH-]C1CCCCC1[NH-].[Pt+2] (stereo unspecified)
active

// outcome(item) with item = `O=C1CC2(CCCCC2)CO1`
inactive

// outcome(item) with item = COc1cccc2c1C(=O)c1c(O)c3c(c(O)c1C2=O)C[C@@](O)(/C(C)=N\NC(=O)CO)C[C@@H]3OC1CC(N)C(O)C(C)O1 (stereo partly specified)
active

// outcome(item) with item = `[Cl][Ni][Cl].[NH-]CCN1CC1.[NH-]CCN1CC1`
inactive

// outcome(item) with item = COC(=O)C1C2CC3c4[nH]c5cc(OC)ccc5c4CCN3CC2CC(OC)C1OC (stereo unspecified)
inactive

====

Assign T/C to each entry below.
System: BDF1 mice, B16 melanoma ip, median survival T/C
Experiment: NCI In Vivo Anticancer Drug Screen. Data for tumor model B16 Melanoma (intraperitoneal) in B6D2F1 (BDF1) mice
Conditions: endpoint: median survival time; dose: 400.0 mg/kg/injection; schedule: Q01DX009 (ip); vehicle: saline with Tween-80; higher = longer survival
Toxic doses and inconclusive results are not listed.

Quote BDF1 mice, B16 melanoma ip, median survival T/C T/C for entry CC1(C)c2ccccc2C(C)(C(Cl)(Cl)Cl)c2ccc(Cl)cc21 (stereo not drawn) .
93 % of control

Quote BDF1 mice, B16 melanoma ip, median survival T/C T/C for entry `O=C(OCCCCCCl)c1ccccc1` .
106 % of control

Quote BDF1 mice, B16 melanoma ip, median survival T/C T/C for entry O=C1C(Br)C2CCC1C2C(=O)O (stereo not drawn) .
89 % of control

Quote BDF1 mice, B16 melanoma ip, median survival T/C T/C for entry `CNC(=O)Oc1ccc2ccccc2c1` .
93 % of control

Quote BDF1 mice, B16 melanoma ip, median survival T/C T/C for entry `NNC(=O)CCC(=O)NN` .
93 % of control

Quote BDF1 mice, B16 melanoma ip, median survival T/C T/C for entry `O=C(NCCCl)NCCCl` .
102 % of control

Quote BDF1 mice, B16 melanoma ip, median survival T/C T/C for entry NC(CC(=O)NC(=O)OCc1ccccc1)C(=O)O (stereo not drawn) .
110 % of control

Quote BDF1 mice, B16 melanoma ip, median survival T/C T/C for entry `Cc1cc(=O)[nH]c(Nc2ccccc2)n1` .
102 % of control
